# experimentalConditions: in isobutanol, 308 K
experimentalReadout: solubility (mole fraction)

> print(dat)
          structurestring         experimentalreadout  readoutvalue
1  c1ccc2c(c1)Cc1ccccc1-2  solubility (mole fraction)        0.0156

* * *

# experimentalConditions: in toluene, 313 K
experimentalReadout: solubility (mole fraction)

> print(dat)
          structurestring  readoutvalue
1  c1ccc2c(c1)Cc1ccccc1-2          0.25

* * *

# experimentalConditions: in benzene, 313 K
experimentalReadout: solubility (mole fraction)

> print(dat)
          structurestring  readoutvalue
1  c1ccc2c(c1)Cc1ccccc1-2         0.183

* * *

# experimentalConditions: in acetone, 293 K
experimentalReadout: solubility (mole fraction)

> print(dat)
          structurestring  readoutvalue
1  c1ccc2c(c1)Cc1ccccc1-2        0.0558

* * *

# experimentalConditions: in toluene, 283 K
experimentalReadout: solubility (mole fraction)

> print(dat)
          structurestring         experimentalreadout  readoutvalue
1  c1ccc2c(c1)Cc1ccccc1-2  solubility (mole fraction)         0.063

* * *

# experimentalConditions: in benzene, 308 K
experimentalReadout: solubility (mole fraction)

> print(dat)
          structurestring         experimentalreadout  readoutvalue
1  c1ccc2c(c1)Cc1ccccc1-2  solubility (mole fraction)         0.158

* * *

# experimentalConditions: in chloroform, 288 K
experimentalReadout: solubility (mole fraction)

> print(dat)
          structurestring  readoutvalue
1  c1ccc2c(c1)Cc1ccccc1-2         0.102

* * *

# experimentalConditions: in acetone, 323 K
experimentalReadout: solubility (mole fraction)

> print(dat)
          structurestring  readoutvalue
1  c1ccc2c(c1)Cc1ccccc1-2          0.14

* * *

# experimentalConditions: in benzene, 283 K
experimentalReadout: solubility (mole fraction)

> print(dat)
          structurestring  readoutvalue
1  c1ccc2c(c1)Cc1ccccc1-2        0.0883
